test system: MOLM14; assay: cell viability relative to vehicle control; higher = less cytotoxic; settings: 10 µM; SRSF2 genotype: SRSF2 P95H/wt;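 also: after 48 h exposure read by CellTiter-Glo luminescence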
Counter-ions that a name gives are not always drawn.
property-label: cell viability (%)
Could you give me the number in %? Just the number is fine.

Sample records with cell viability:
OC[C@H]1O[C@@](CO)(OC[C@@]2(OC[C@@]3(O[C@H]4O[C@H](CO)[C@@H](O)[C@H](O)[C@H]4O)O[C@H](CO)[C@@H](O)[C@@H]3O)O[C@H](CO)[C@@H](O)[C@@H]2O)[C@@H](O)[C@@H]1O :: 106
C[C@H](CCC(=O)O)[C@H]1CC[C@H]2[C@@H]3[C@H](O)C[C@@H]4C[C@H](O)CC[C@]4(C)[C@H]3CC[C@]12C :: 100
Cc1nccn1CC1CCc2c(c3ccccc3n2C)C1=O (centres undefined) [Ondansetron hydrochloride (Zofran)] :: 102

Read the next record carefully.
**Query** Give cell viability for the following compound: Cc1cccc2c3c(ccc12)C1=C(C(=O)C3=O)[C@@H](C)CO1 [Dihydrotanshinone I]
**Result** 0.56

====

test system: K562; assay: cell viability relative to vehicle control; higher = less cytotoxic; settings: 10 µM; SRSF2 genotype: SRSF2 wt/wt
property-label: cell viability (%)
Could you give me the number in %? Just the number is fine.

CC(C)NC(=O)COc1cccc(-c2nc(Nc3ccc4[nH]ncc4c3)c3ccccc3n2)c1 :: 84.7

**Query** Give cell viability for the following molecule: O=C(Nc1ccccc1-c1cn2c(CN3CC[C@@H](O)C3)csc2n1)c1ccc2ccccc2c1
**Result** 39.3

**Query** Give cell viability for the following molecule: O=C(O)CCCc1ccccc1 [Sodium Phenylbutyrate]
**Result** 105

**Query** Give cell viability for the following molecule: COC(=O)C=Cc1ccc(O)c(OC)c1 [Ferulic acid methyl ester]
**Result** 108

**Query** Give cell viability for the following molecule: COc1ccc(-c2ccc3cc(C(=O)O)ccc3c2)cc1C12CC3CC(CC(C3)C1)C2 [Adapalene]
**Result** 88.2

**Query** Give cell viability for the following molecule: O=C1CCC(N2C(=O)c3ccccc3C2=O)C(=O)N1 (centres undefined) [Thalidomide]
**Result** 84.5

====

system: MOLM14; experiment: cell viability relative to vehicle control; higher = less cytotoxic; settings: 10 µM; SRSF2 genotype: SRSF2 wt/wt
Structures can show the parent of a compound that is named as a salt.
property-label: cell viability (%)
Could you give me the number in %? Just the number is fine.

Sample records with cell viability:
C/C=C(/C)C(=O)OC(=O)/C(C)=C\C [Angelic anhydride] :: 107
CC(C)[C@H]1C(=O)N[C@@H](CCCNC(=N)N)C(=O)NCC(=O)N[C@@H](CC(=O)O)C(=O)N[C@H](Cc2ccccc2)C(=O)N1C [Cilengitide trifluoroacetate] :: 99.5
O=P(O)(O)Oc1cccc2ccccc12 [1-Naphthyl phosphate potassium salt] :: 104
CCNC(=O)Nc1ccc(-c2nc3c(c(N4CCOC[C@@H]4C)n2)CCN(C2COC2)C3)cc1 :: 28.8
CC1=CCC(=C(C)C)C(=O)CC(C)=CCC1 [Germacrone] :: 106

**Query** Give cell viability for the following compound: COc1cc([C@H]2OC[C@H]3[C@@H]2CO[C@@H]3c2ccc(O[C@@H]3O[C@H](CO)[C@@H](O)[C@H](O)[C@H]3O)c(OC)c2)ccc1O[C@@H]1O[C@H](CO)[C@@H](O)[C@H](O)[C@H]1O [Pinoresinol diglucoside]
**Result** 103

**Query** Give cell viability for the following compound: CCOC(=O)Nc1ccc(NCc2ccc(F)cc2)nc1N [Flupirtine maleate]
**Result** 103

====

test system: MARIMO; assay: cell viability relative to vehicle control; higher = less cytotoxic; conditions: 10 µM; SRSF2 genotype: SRSF2 P95H/wt
property-label: cell viability (%)
Could you give me the number in %? Just the number is fine.

CC(C)(C)OC(=O)N[C@@H]1CCCC[C@H]1N [(1R,2R)-trans-N-Boc-1,2-cyclohexanediamine] :: 101

Read the next record carefully.
**Query** Give cell viability for the following compound: CC1(C)[C@@H](O[C@H]2O[C@H](C(=O)O)[C@@H](O)[C@H](O)[C@H]2O[C@@H]2O[C@H](C(=O)O)[C@@H](O)[C@H](O)[C@H]2O)CC[C@]2(C)[C@H]3C(=O)C=C4[C@@H]5C[C@@](C)(C(=O)O)CC[C@]5(C)CC[C@@]4(C)[C@]3(C)CC[C@@H]12 [Ammonium Glycyrrhizinate (AMGZ)]
**Result** 107

====

Consider the following compounds and their measured cell viability readings.
tested on: OCI-AML2; assay: cell viability relative to vehicle control; higher = less cytotoxic; details: 10 µM; SRSF2 genotype: wt/wt
Structures can show the parent of a compound that is named as a salt.
Could you give me the number in %? Just the number is fine.

Sample records with cell viability:
N=C1CCCN1Cc1[nH]c(=O)[nH]c(=O)c1Cl [Tipiracil hydrochloride] :: 94.7
CCCCCCNC(=O)n1cc(F)c(=O)[nH]c1=O :: 58.3
COc1ccc2cc(-c3nc(-c4ccc([S+](C)[O-])cc4)[nH]c3-c3ccncc3)ccc2c1 (configuration not stated) :: 84.3
CCN(CC)C(=O)C1(c2ccccc2)CC1CN (configuration not stated) [Milnacipran HCl] :: 108
CC(C)=CCC[C@](C)(O[C@@H]1O[C@H](CO[C@@H]2O[C@H](CO)[C@@H](O)[C@H](O)[C@H]2O)[C@@H](O)[C@H](O)[C@H]1O)[C@H]1CC[C@]2(C)[C@@H]1[C@H](O)C[C@@H]1[C@@]3(C)CC[C@H](O[C@@H]4O[C@H](CO)[C@@H](O)[C@H](O)[C@H]4O[C@@H]4O[C@H](CO)[C@@H](O)[C@H](O)[C@H]4O)C(C)(C)[C@@H]3CC[C@]12C [Ginsenoside Rb1] :: 111

**Query** Give cell viability for the following compound: COc1cc2c(Oc3ccc(NC(=O)C4(C(=O)Nc5ccc(F)cc5)CC4)cc3F)ccnc2cc1OCCCN1CCOCC1
**Result** 1.03

**Query** Give cell viability for the following compound: CC(C)(C)NC(=O)[C@H]1CC[C@H]2[C@@H]3CC[C@H]4NC(=O)C=C[C@]4(C)[C@H]3CC[C@]12C [Finasteride]
**Result** 106

====

tested on: MOLM14; experiment: cell viability relative to vehicle control; higher = less cytotoxic; conditions: 10 µM; SRSF2 genotype: SRSF2 wt/wt
Counter-ions that a name gives are not always drawn.
Checkbox rule: cell viability lower than 30% = Met; cell viability not lower than 30% = Not met.

Reference set, count: 8
NC(=S)N/N=C/c1ncccc1N :: Met
COc1nc(OCc2cccc(-c3ccccc3)c2C)ccc1CNCCNC(C)=O :: Not met
COc1cc2c(cc1OC)CC(=O)N(CCCN(C)C[C@H]1Cc3cc(OC)c(OC)cc31)CC2 [Ivabradine HCl (Procoralan)] :: Not met
CN(C)c1ccc(-c2nc3ncc(Cl)c(N4CCN(CC(=O)Nc5nccs5)CC4)c3[nH]2)cc1 :: Not met
Cc1cnc(C(=O)NCCc2ccc(S(=O)(=O)NC(=O)NC3CCCCC3)cc2)cn1 [Glipizide (Glucotrol)] :: Not met
NC(=O)c1cccc2cn(-c3ccc([C@@H]4CCCNC4)cc3)nc12 [MK-4827(Niraparib) tosylate] :: Met
O=C(O)CCN1C(=O)/C(=C/c2ccc(-c3ccc([N+](=O)[O-])cc3)o2)SC1=S :: Not met
Nc1ccc(O)cc1 :: Met

# evaluate next
**Query** Please determine if CN1CC(=O)N2[C@H](c3ccc4c(c3)OCO4)c3[nH]c4ccccc4c3C[C@@H]2C1=O is below 30% in terms of cell viability.
**Result** Not met

====

Consider the following compounds and their measured cell viability readings.
test system: MOLM14; test: cell viability relative to vehicle control; higher = less cytotoxic; settings: 10 µM; SRSF2 genotype: SRSF2 wt/wt
Structures can show the parent of a compound that is named as a salt.
Could you give me the number in %? Just the number is fine.

O=S(=O)(c1cccc2cnccc12)N1CCCNCC1 [Fasudil HCl (HA-1077)] :: 94.4
CC(=CCNc1ncnc2c1ncn2C1OC(CO)C(O)C1O)CO (stereo not drawn) [trans-Zeatin-riboside] :: 105
CCCCNc1cc(C(=O)O)cc(S(N)(=O)=O)c1Oc1ccccc1 [Bumetanide] :: 101
Cc1cc(/C=C2/SC(=S)NC2=O)c(C)n1-c1cccnc1 :: 90.5
CC12CCC(C1)C(C)(C)C2O (configuration not stated) :: 96.6
Nc1ccc(S(=O)(=O)Nc2cncc(Cl)n2)cc1 [Sulfalozine sodium] :: 102

**Query** Quote MOLM14 cell viability for entry C=C[C@@]1(C)CC(=O)[C@]2(O)[C@@]3(C)[C@@H](O)CCC(C)(C)[C@@H]3[C@H](O)[C@H](OC(C)=O)[C@@]2(C)O1 .
**Result** 101

**Query** Quote MOLM14 cell viability for entry O=C(O)c1ccc(Cl)cc1O [4-Chloro-2-hydroxybenzoic acid] .
**Result** 107

**Query** Quote MOLM14 cell viability for entry CC[C@H](NC(=O)[C@H](C)NC)C(=O)N1C[C@@H](O)C[C@H]1Cc1c(-c2[nH]c3cc(F)ccc3c2C[C@@H]2C[C@H](O)CN2C(=O)[C@H](CC)NC(=O)[C@H](C)NC)[nH]c2cc(F)ccc12 .
**Result** 65.4

**Query** Quote MOLM14 cell viability for entry O=C1NC(=O)/C(=C/c2ccc3nccc(-c4ccncc4)c3c2)S1 .
**Result** 42
